target: Mannose-6-phosphate isomerase (Homo sapiens); assay: MPI inhibition at elevated mannose 6-phosphate – biochemical, fluorescence intensity, high mannose 6-phosphate, primary screen (AID 1220); conditions: recombinant PMI enzyme, coupled fluorescence intensity; at 20 µM; stronger effect = higher value
Out of some 190,000 compounds screened, about 1,300 (0.68%) were called active. For the sample, actives were picked, then their nearest neighbours and some compounds at random.
Item-by-item account of inhibition
Your answer should be a plain number; it is taken to be in %.

Molecule	inhibition (%)
CCN(CC)C(=O)Cn1cc(S(=O)(=O)CC(=O)Nc2ccc3c(c2)OCCO3)c2ccccc21	1.2
CCn1cc(S(=O)(=O)CC(=O)Nc2ccc3c(c2)OCCO3)c2ccccc21	53.3

Pending molecule:
Prompt: Entry CCCC(C(=O)NC1CCCC1)N(Cc1ccc2c(c1)OCO2)C(=O)c1snc(C(N)=O)c1N (stereo not drawn) has what inhibition?
Completion: -8.2

---

Item-by-item account of inhibition
target: Mannose-6-phosphate isomerase (Homo sapiens) (UniProt P34949); test: MPI inhibition at elevated mannose 6-phosphate – biochemical, fluorescence intensity, high mannose 6-phosphate, primary screen (AID 1220); conditions: recombinant PMI enzyme, coupled fluorescence intensity; at 20 µM; stronger effect = higher value
Sequence (P34949 whole entry, looked up): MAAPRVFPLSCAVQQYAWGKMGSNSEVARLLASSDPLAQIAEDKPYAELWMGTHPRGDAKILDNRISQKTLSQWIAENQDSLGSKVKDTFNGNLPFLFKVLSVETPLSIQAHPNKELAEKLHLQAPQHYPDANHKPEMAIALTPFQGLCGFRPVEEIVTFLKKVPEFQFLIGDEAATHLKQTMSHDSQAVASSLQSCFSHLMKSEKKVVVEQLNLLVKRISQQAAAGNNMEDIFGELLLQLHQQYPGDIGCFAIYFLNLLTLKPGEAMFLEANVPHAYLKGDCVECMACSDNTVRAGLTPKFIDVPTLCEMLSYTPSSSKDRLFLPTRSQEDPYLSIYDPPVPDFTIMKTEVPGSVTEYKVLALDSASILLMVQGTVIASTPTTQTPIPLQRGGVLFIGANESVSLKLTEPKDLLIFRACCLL
The campaign covered roughly 190,000 compounds. About 1,300 (0.68%) were called active. For the sample, actives were picked, then their nearest neighbours and some compounds at random.
Your answer should be a plain number; it is taken to be in %.

Use the examples below as a reference point.
Compound	inhibition, %
C=CCOc1c(Br)cc(CNc2ccc(NC(=O)C(C)C)c(OC)c2)cc1OC	41.7
CC(=O)NC(c1ccc(C)cc1)c1cc([N+](=O)[O-])c2cccnc2c1O (stereo not drawn)	64.9

Prompt: Entry Oc1ccc2ccccc2c1Br has what inhibition?
Completion: 52.5

Prompt: Entry CCN1C(=O)c2cccc3c(NC(=O)c4ccccc4)ccc1c23 has what inhibition?
Completion: 27.7

Prompt: Entry c1ccc(NC2=Nc3cccc4cccc2c34)cc1 has what inhibition?
Completion: 9.8

Prompt: Entry CC1=NN(c2nc(-c3ccc(C)cc3)cs2)C(=O)C1N=Nc1ccc2ccccc2c1 (stereo not drawn) has what inhibition?
Completion: 10.1

Prompt: Entry O=[N+]([O-])c1ccc(SCc2ccco2)cc1N1CCOCC1 has what inhibition?
Completion: 1.4

Prompt: Entry O=[N+]([O-])c1cc(Cl)c2cccnc2c1O has what inhibition?
Completion: 47.2

---

target: Mannose-6-phosphate isomerase (Homo sapiens); test: MPI inhibition at elevated mannose 6-phosphate – biochemical, fluorescence intensity, high mannose 6-phosphate, primary screen (AID 1220); settings: recombinant PMI enzyme, coupled fluorescence intensity; at 20 µM; stronger effect = higher value
In all, about 190,000 compounds went through this assay and about 1,300 (0.68%) were called active. The full list was thinned out, with actives kept by preference.
Item-by-item account of inhibition
Your answer should be a plain number; it is taken to be in %.

Compound	inhibition (%)
Cc1cc(C(=O)COc2cccnc2[N+](=O)[O-])c(C)n1-c1ccccc1	53.3

Prompt: Which measured inhibition belongs to CCN1CCN(c2cc(C)c3cc(NC(=S)NCCCN4CCc5ccccc5C4)ccc3n2)CC1 , tested on Mannose-6-phosphate isomerase (Homo sapiens)?
Completion: 27.2

Prompt: Which measured inhibition belongs to COC(=O)CSc1cc(C)nc2ccc(OC)cc12 , tested on Mannose-6-phosphate isomerase (Homo sapiens)?
Completion: 7.7

Prompt: Which measured inhibition belongs to CCN1CCN(CCOCCOc2ccccc2-c2ccccc2)CC1 , tested on Mannose-6-phosphate isomerase (Homo sapiens)?
Completion: -4.3

Prompt: Which measured inhibition belongs to N#CC1=C2SCN(Cc3ccco3)CN2C(=O)CC1c1ccccc1F (stereo not drawn) , tested on Mannose-6-phosphate isomerase (Homo sapiens)?
Completion: 15

Prompt: Which measured inhibition belongs to COCCOC(=O)C1=C(C)N=C2SCCC(=O)N2C1c1cccc(Br)c1 (stereo not drawn) , tested on Mannose-6-phosphate isomerase (Homo sapiens)?
Completion: 1.8

Prompt: Which measured inhibition belongs to Cc1ccc(-n2c(C)cc(C(=O)COc3cccnc3[N+](=O)[O-])c2C)cc1 , tested on Mannose-6-phosphate isomerase (Homo sapiens)?
Completion: 54.5

Prompt: Which measured inhibition belongs to Cc1ccc(OCC(=O)c2cc(C)n(C3CC3)c2C)c([N+](=O)[O-])n1 , tested on Mannose-6-phosphate isomerase (Homo sapiens)?
Completion: 10.6

Prompt: Which measured inhibition belongs to Cc1cc(S(=O)(=O)NCC(C)C)ccc1OCC(=O)NCC1CCCO1 (stereo not drawn) , tested on Mannose-6-phosphate isomerase (Homo sapiens)?
Completion: 15.5

Prompt: Which measured inhibition belongs to O=C1CC(NCc2ccc3c(c2)OCO3)C(=O)N1CCc1ccccc1 (stereo not drawn) , tested on Mannose-6-phosphate isomerase (Homo sapiens)?
Completion: 1

Prompt: Which measured inhibition belongs to CCc1ccccc1S(=O)(=O)Cc1ccc(C(=O)NCc2ccc3c(c2)OCO3)o1 , tested on Mannose-6-phosphate isomerase (Homo sapiens)?
Completion: -1.6

Prompt: Which measured inhibition belongs to CCC(C)(C)NC(=O)C(c1ccccn1)N(C(=O)c1csnn1)c1ccc(C)cc1 (stereo not drawn) , tested on Mannose-6-phosphate isomerase (Homo sapiens)?
Completion: -1.6

Prompt: Which measured inhibition belongs to CC1CCN(c2ccc(/C=N\Nc3nncn3N)cc2[N+](=O)[O-])CC1 , tested on Mannose-6-phosphate isomerase (Homo sapiens)?
Completion: 43.7
